assay: chemical genetic growth profiling, strain panel (AID 1159580);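 also: tested at 20 µM; growth read once vehicle control cultures reached saturation at 30 °C; 1 = growth at the plate median or of vehicle wells; lower values mean less growth of the strain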; details: S. cerevisiae deletion strains, growth OD, locus YGR078C, strain PAC10, active compounds read low
In all, about 5,500 compounds went through this assay and about 2,000 (36%) were called active. About 18% were inconclusive and are not listed. The list shows a part of the results.
measured_parameter: normalized growth

>>> test_value("NC(=NCCC[C@H](N)C(=O)O)NC(CCC(=O)O)C(=O)O (some centres undefined)")
1.01
>>> test_value("COC(=O)C[C@H]1C(C)(C)C(=O)[C@@H]2CC3=C4CC(=O)O[C@@H](c5ccoc5)[C@]4(C)CCC3[C@@]1(C)C2=O (some centres undefined)")
1.01
>>> test_value("O=[N+]([O-])c1cc([As](=O)(O)O)ccc1O")
0.958
>>> test_value("CCN(CC)CCNC(=O)c1cc(S(C)(=O)=O)ccc1OC")
0.998
